# Experimental System: human adenosine A1 receptor (hA1R) (Homo sapiens, UniProt P30542)
# Construct: Steve Hill (University of Nottingham, UK); host or cells: CHO cells stably expressing hA1R; membrane preparation
# Sequence (P30542 whole entry): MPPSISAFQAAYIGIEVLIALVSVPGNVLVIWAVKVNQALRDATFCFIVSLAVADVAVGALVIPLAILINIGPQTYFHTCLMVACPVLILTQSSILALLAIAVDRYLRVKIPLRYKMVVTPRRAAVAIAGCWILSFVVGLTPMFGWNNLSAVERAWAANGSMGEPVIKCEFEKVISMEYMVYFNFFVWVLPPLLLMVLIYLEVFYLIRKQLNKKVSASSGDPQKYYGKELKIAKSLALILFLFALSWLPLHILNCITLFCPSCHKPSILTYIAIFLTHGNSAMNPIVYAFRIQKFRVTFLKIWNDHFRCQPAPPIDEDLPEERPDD
# Experimental Details: Competition association with [3H]-DPCPX, filtration assay
# Assay type: binding
# Test Parameters: k off/k on, 28 °C, 1 mM GTP present for LUF5834, CCPA, NECA, read-out: Filtration assay Kinetic K D
Measure: Kd (nM)
The reply should be a number in nM, with the unit left off.

[ask] Query Kd on human adenosine A1 receptor (hA1R) (Homo sapiens, UniProt P30542) for N#Cc1c(N)nc(SCc2ncc[nH]2)c(C#N)c1-c1ccc(O)cc1 [LUF5834]
[reply] 3.7
